target: KRAS G13D (Homo sapiens (Human), UniProt P01116+P62937, G13D); assay: Ras-Raf (BRAF RBD) disruption / FRET / MOA assay, KRAS G13D; type: biochemical; details: read-out: IC50* KRAS G13D FRET data
Sequence (P01116-2 other isoform, or with tags, fused parts or gaps G13D): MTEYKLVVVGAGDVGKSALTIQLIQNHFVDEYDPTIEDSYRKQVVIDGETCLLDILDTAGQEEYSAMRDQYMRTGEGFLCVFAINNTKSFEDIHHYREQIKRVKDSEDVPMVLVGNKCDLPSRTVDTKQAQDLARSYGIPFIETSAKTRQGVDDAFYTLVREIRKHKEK
Sequence (P62937 whole entry): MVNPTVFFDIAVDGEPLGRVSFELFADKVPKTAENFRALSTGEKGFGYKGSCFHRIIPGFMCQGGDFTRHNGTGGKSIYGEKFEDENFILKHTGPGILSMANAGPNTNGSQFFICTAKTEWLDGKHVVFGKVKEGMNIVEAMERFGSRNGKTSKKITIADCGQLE
quantity_kind: IC50

Use these answered entries as a reference point.
compound | result
C=CC(=O)N1CC(O[C@H](C(=O)N[C@H]2Cc3cc(O)cc(c3)-c3ccc4c(c3)c(c(-c3cccnc3COC)n4CC)CC(C)(C)COC(=O)[C@@H]3CCCN(N3)C2=O)C(C)C)C1 | > 10 µM
C=CC(=O)N1CC[C@H](C(=O)N(C)[C@H](C(=O)N[C@H]2Cc3cc(O)cc(c3)-c3ccc4nc(-c5cccnc5COC)c(n4c3)CC(C)(C)COC(=O)[C@@H]3CCCN(N3)C2=O)C(C)C)C1 | > 10 µM
C=CC(=O)N1CCO[C@H]2CN(C(=O)N(C)[C@H](C(=O)N[C@H]3Cc4nc(cs4)-c4ccc5c(c4)c(c(-c4cccnc4[C@H](C)OC)n5CC)CC(C)(C)COC(=O)[C@@H]4CCCN(N4)C3=O)C(C)C)C[C@@H]21 (atropisomer, axis not shown) | 0.1 to 1 µM

Moving on to the next compound.
Task: For the compound shown here, "CCn1c(-c2cccnc2[C@H](C)OC)c2c3cc(ccc31)-c1cccc(c1)C[C@H](NC(=O)[C@H](C(C)C)N1CC[C@@]3(CCN(C(=O)C#C[C@@H]4COCCN4C4COC4)C3)C1=O)C(=O)N1CCC[C@H](N1)C(=O)OCC(C)(C)C2" , give the reported IC50.
Result: 1 to 10 µM
